biological target: hog kidney renin (Sus scrofa)
Sequence (A0A287APG1 67-407): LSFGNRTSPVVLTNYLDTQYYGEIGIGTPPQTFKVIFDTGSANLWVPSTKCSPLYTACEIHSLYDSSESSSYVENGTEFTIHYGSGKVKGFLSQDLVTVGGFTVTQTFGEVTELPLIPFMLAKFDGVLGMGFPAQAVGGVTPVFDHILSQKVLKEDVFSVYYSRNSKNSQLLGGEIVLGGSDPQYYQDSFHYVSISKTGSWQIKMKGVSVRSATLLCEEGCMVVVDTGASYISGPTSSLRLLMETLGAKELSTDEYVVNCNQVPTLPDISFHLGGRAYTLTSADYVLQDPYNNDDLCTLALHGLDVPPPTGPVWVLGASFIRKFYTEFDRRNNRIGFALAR
Peptide text beside a SMILES is read from it.

>  <compound>
CC(C)C[C@@H]1NC(=O)C[C@H](O)[C@H](CC(C)C)NC(=O)[C@@H](NC(=O)[C@H](Cc2ccccc2)NC(=O)[C@@H]2CCCN2C(=O)[C@H](Cc2c[nH]cn2)NC(=O)C(C)C)CCCNC(=O)CNC(=O)[C@H](Cc2ccccc2)NC1=O (HELM PEPTIDE1{[CC(C)C(=O)[*:2]].H.P.F.[Orn].[CC(C)C[C@H](N[*:1])[C@@H](O)CC(=O)[*:2]].L.F.G}$PEPTIDE1,PEPTIDE1,5:R3-9:R2$$$V2.0)

>  <testSystem>
hog kidney renin (Sus scrofa)

>  <IC50 / µM>
2.8

$$$$

====

Peptide text beside a SMILES is read from it.
This document collects IC50 values reported for hog kidney renin (Sus scrofa).
experimentalEndpoint: IC50

>  <compound>
CC(C)C[C@@H]1NC(=O)C[C@H](O)[C@H](CC(C)C)NC(=O)[C@@H](NC(=O)[C@H](Cc2ccccc2)NC(=O)[C@@H]2CCCN2C(=O)[C@H](Cc2c[nH]cn2)NC(=O)C(C)C)CCCCNC(=O)[C@H](Cc2ccccc2)NC1=O [drawing 31] (HELM PEPTIDE1{[CC(C)C(=O)[*:2]].H.P.F.K.[CC(C)C[C@H](N[*:1])[C@@H](O)CC(=O)[*:2]].L.F}$PEPTIDE1,PEPTIDE1,5:R3-8:R2$$$V2.0)

>  <reportedMeasurement>
230 nM

$$$$
>  <compound>
CC(C)C[C@@H]1NC(=O)C[C@H](O)[C@H](Cc2ccccc2)NC(=O)[C@@H](NC(=O)C(CCCc2ccccc2)Cc2ccccc2)CCCCNC(=O)[C@H](Cc2ccccc2)NC1=O (single isomer, unassigned) [drawing 38]

>  <reportedMeasurement>
26 nM

$$$$

====

Quick record: IC50, hog kidney renin (Sus scrofa).
Peptide text beside a SMILES is read from it.

>  <molecule>
CC(C)C[C@@H]1NC(=O)C[C@H](O)[C@H](CC(C)C)NC(=O)[C@@H](NC(=O)[C@H](Cc2ccccc2)NC(=O)[C@@H]2CCCN2C(=O)[C@H](Cc2c[nH]cn2)NC(=O)C(C)C)CCCNC(=O)[C@H](Cc2ccccc2)NC1=O (HELM PEPTIDE1{[CC(C)C(=O)[*:2]].H.P.F.[Orn].[CC(C)C[C@H](N[*:1])[C@@H](O)CC(=O)[*:2]].L.F}$PEPTIDE1,PEPTIDE1,5:R3-8:R2$$$V2.0)

>  <unitString>
µM

>  <IC50>
24

$$$$
>  <molecule>
CC(C)C[C@@H]1NC(=O)C[C@H](O)[C@H](CC(C)C)NC(=O)[C@@H](NC(=O)[C@H](Cc2ccccc2)NC(=O)OC(C)(C)C)CCCCNC(=O)[C@H](Cc2ccccc2)NC1=O [drawing 37] (HELM PEPTIDE1{[CC(C)(C)OC(=O)[*:2]].F.K.[CC(C)C[C@H](N[*:1])[C@@H](O)CC(=O)[*:2]].L.F}$PEPTIDE1,PEPTIDE1,3:R3-6:R2$$$V2.0)

>  <unitString>
µM

>  <IC50>
0.45

$$$$
>  <molecule>
CC(C)C[C@@H]1NC(=O)C[C@H](O)[C@H](CC(C)C)NC(=O)[C@@H](NC(=O)[C@H](Cc2ccccc2)NC(=O)[C@@H]2CCCN2C(=O)[C@H](Cc2c[nH]cn2)NC(=O)C(C)C)CCNC(=O)CNC(=O)[C@H](Cc2ccccc2)NC1=O (HELM PEPTIDE1{[CC(C)C(=O)[*:2]].H.P.F.[Dab].[CC(C)C[C@H](N[*:1])[C@@H](O)CC(=O)[*:2]].L.F.G}$PEPTIDE1,PEPTIDE1,5:R3-9:R2$$$V2.0)

>  <unitString>
µM

>  <IC50>
7.1

$$$$
>  <molecule>
CC(C)C[C@@H]1NC(=O)C[C@H](O)[C@H](CC(C)C)NC(=O)[C@@H](NC(=O)[C@H](Cc2ccccc2)NC(=O)[C@@H]2CCCN2C(=O)[C@H](Cc2c[nH]cn2)NC(=O)C(C)C)CCCCNC(=O)CNC(=O)[C@H](Cc2ccccc2)NC1=O (HELM PEPTIDE1{[CC(C)C(=O)[*:2]].H.P.F.K.[CC(C)C[C@H](N[*:1])[C@@H](O)CC(=O)[*:2]].L.F.G}$PEPTIDE1,PEPTIDE1,5:R3-9:R2$$$V2.0)

>  <unitString>
µM

>  <IC50>
1.7

$$$$
